system_name: SNARE complex (VAMP, syntaxin, SNAP-25 bound to GST) (UniProt P60880)
Sequence (P60880 whole entry, one chain of several): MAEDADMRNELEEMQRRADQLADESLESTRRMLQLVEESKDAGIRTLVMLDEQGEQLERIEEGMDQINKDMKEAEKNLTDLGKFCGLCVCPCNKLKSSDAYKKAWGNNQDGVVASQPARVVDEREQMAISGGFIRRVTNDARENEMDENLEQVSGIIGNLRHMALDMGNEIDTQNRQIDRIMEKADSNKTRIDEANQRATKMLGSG
assay_overview: ELISA of SNARE complex formation (SNAP-25-GST, syntaxin, immobilized VAMP); compound at 2.5 mM
readout_kind: % inhibition formation SNARE complex (%)
Give a bare numeral; the unit % is implied.

Prompt line: Any idea what % inhibition formation SNARE complex was measured for Ac-DHLKKWM-NH2 [Ac-SEQ ID NO: 22-NH2] ?
Response line: 72

Prompt line: Any idea what % inhibition formation SNARE complex was measured for Ac-NDLKDWM-NH2 [Ac-SEQ ID NO: 23-NH2] ?
Response line: 60

Prompt line: Any idea what % inhibition formation SNARE complex was measured for Ac-DHFQQRM-NH2 [Ac-SEQ ID NO: 24-NH2] ?
Response line: 55

Prompt line: Any idea what % inhibition formation SNARE complex was measured for Ac-NHLKNWM-NH2 [Ac-SEQ ID NO: 31-NH2] ?
Response line: 59
